This collection of values is drawn from patent US20230150970A1.

# Target: AhR (Homo sapiens, UniProt P35869)
# Measurement Description: In Vitro Assay 1: XRE-luciferase reporter assay, antagonism in human cell line (HepG2)
# Condition Label: Assay 1: AhR-Luc Human Antagonism (IC50, nM), unmarked values: kynurenine 200 μM, 6 hours
Attribute Measured: IC50

Per the record, CC1CN(c2cc(-c3ccc(Cl)cc3)nc(-c3cccnc3)n2)CC(=O)N1 (centres unmarked) has IC50 of 100 to 1000 nM

Per the record, `O[C@H]1CCN(c2cc(-c3ccc(F)nc3)nc(-c3cccnc3)n2)C1` has IC50 of 100 to 1000 nM

Per the record, `OC[C@H]1CN(c2cc(-c3ccc(Cl)cc3)nc(-c3cccnc3)n2)C[C@@H]1O` has IC50 of < 10 nM

Per the record, `OC[C@@H]1CCN(c2cc(-c3ccc(C(F)(F)F)cc3)nc(-c3cccnc3)n2)C[C@@H]1F` has IC50 of < 10 nM

Per the record, `OC[C@H]1CN(c2cc(-c3ccc(C(F)(F)F)cc3)nc(-c3cccnc3)n2)CCO1` has IC50 of < 10 nM

Per the record, `Oc1cc(Cl)ccc1-c1cc(N2CC[C@H](O)C2)nc(-c2cccnc2)n1` has IC50 of < 10 nM

Per the record, `Cn1cc(-c2nc(-c3ccc(Cl)cc3)cc(N3CCN(S(=O)(=O)CCO)CC3)n2)cn1` has IC50 of 10 to 100 nM

Per the record, `CC(=O)N[C@@H]1CN(c2cc(-c3ccc(Cl)cc3)nc(-c3cccnc3)n2)C[C@@H]1O` has IC50 of < 10 nM

----------
Collected IC50 values appear next to each entry.
# Target: AhR (Homo sapiens)
# Measurement Description: In Vitro Assay 1: XRE-luciferase reporter assay, antagonism in human cell line (HepG2)
# Condition Label: Assay 1: AhR-Luc Human Antagonism (IC50, nM), values marked *: kynurenine 50 μM, 6 hours

The cases that follow already have their IC50 on record.
Compound: Clc1ccc(-c2cc(NCC3CNCCO3)nc(-c3cccnc3)n2)cc1 (centres unmarked)
IC50: > 1000 nM
//
Compound: Clc1ccc(-c2cc(N3CCN(c4cccc(Cl)c4Cl)CC3)nc(-c3cccnc3)n2)cc1
IC50: > 1000 nM

Test item `Cn1cc(-c2nc(N[C@H]3CC[C@H](O)CC3)cc(-c3ccc(Cl)cc3)n2)cn1` ; AhR (Homo sapiens); reported IC50 was 100 to 1000 nM

Test item OCC1CCN(c2cc(-c3ccc(Cl)cc3)nc(-c3cccnc3)n2)C1 (centres unmarked) ; AhR (Homo sapiens); reported IC50 was < 10 nM

----------
# Target: AhR (Homo sapiens, UniProt P35869)
# Measurement Description: In Vitro Assay 1: XRE-luciferase reporter assay, antagonism in human cell line (HepG2)
# Condition Label: Assay 1: AhR-Luc Human Antagonism (IC50, nM), values marked *: kynurenine 50 μM, 6 hours
Collected IC50 values appear next to each entry.

Compound: OC[C@@H]1CCCN(c2cc(-c3ccc(Cl)cc3)nc(-c3cccnc3)n2)C1
Attribute Measured: IC50
Reported Result: < 10 nM

Compound: Clc1ccc(-c2cc(NCC3CCCN(C4CCCCC4)C3)nc(-c3cccnc3)n2)cc1 (stereo not shown)
Attribute Measured: IC50
Reported Result: 100 to 1000 nM

Compound: OC1CCCN(c2cc(-c3ccc(Cl)cc3)nc(-c3cccnc3)n2)C1 (stereo not shown)
Attribute Measured: IC50
Reported Result: 10 to 100 nM

Test item `COC(=O)[C@H]1CN(c2cc(-c3ccc(Cl)cc3)nc(-c3cccnc3)n2)CCN1` ; AhR (Homo sapiens, UniProt P35869); reported IC50 was > 1000 nM

Test item `Clc1ccc(-c2cc(N[C@@H]3CCCNC3)nc(-c3cccnc3)n2)cc1` ; AhR (Homo sapiens, UniProt P35869); reported IC50 was 100 to 1000 nM

Test item `COCC(=O)NC1CCN(c2cc(-c3ccc(Cl)cc3)nc(-c3cccnc3)n2)CC1` ; AhR (Homo sapiens, UniProt P35869); reported IC50 was < 10 nM

Test item `Clc1ccc(-c2cc(NCc3ccccn3)nc(-c3cccnc3)n2)cc1` ; AhR (Homo sapiens, UniProt P35869); reported IC50 was 100 to 1000 nM

----------
# Target: AhR (Homo sapiens)
# Measurement Description: In Vitro Assay 1: XRE-luciferase reporter assay, antagonism in human cell line (HepG2)
# Condition Label: Assay 1: AhR-Luc Human Antagonism (IC50, nM), values marked *: kynurenine 50 μM, 6 hours
Collected IC50 values appear next to each entry.

The cases that follow already have their IC50 on record.
Compound: O[C@@H]1CCN(c2cc(-c3ccc(Cl)cc3)nc(-c3cccnc3)n2)C[C@H]1F
Target: AhR (Homo sapiens)
Reported Result: 10 to 100 nM

Compound: CNC1CCN(c2cc(-c3ccc(Cl)cc3)nc(-c3cccnc3)n2)C1 (stereo not drawn)
Target: AhR (Homo sapiens)
Reported Result: > 1000 nM

Compound: COC(=O)[C@@H]1CCCN1c1cc(-c2ccc(Cl)cc2)nc(-c2cccnc2)n1
Target: AhR (Homo sapiens)
Reported Result: 100 to 1000 nM

Per the record, `Clc1ccc(-c2cc(N3CCCC3)nc(-c3cccnc3)n2)cc1` has IC50 of 10 to 100 nM

Per the record, `OC1(c2ccc(Cl)cc2)CCN(c2cc(-c3ccc(Cl)cc3)nc(-c3cccnc3)n2)CC1` has IC50 of > 1000 nM

Per the record, `CC(=O)N1CCC(CNc2cc(-c3ccc(Cl)cc3)nc(-c3cccnc3)n2)CC1` has IC50 of < 10 nM

----------
Collected IC50 values appear next to each entry.
# Target: AhR (Homo sapiens)
# Sequence (P35869 11-848): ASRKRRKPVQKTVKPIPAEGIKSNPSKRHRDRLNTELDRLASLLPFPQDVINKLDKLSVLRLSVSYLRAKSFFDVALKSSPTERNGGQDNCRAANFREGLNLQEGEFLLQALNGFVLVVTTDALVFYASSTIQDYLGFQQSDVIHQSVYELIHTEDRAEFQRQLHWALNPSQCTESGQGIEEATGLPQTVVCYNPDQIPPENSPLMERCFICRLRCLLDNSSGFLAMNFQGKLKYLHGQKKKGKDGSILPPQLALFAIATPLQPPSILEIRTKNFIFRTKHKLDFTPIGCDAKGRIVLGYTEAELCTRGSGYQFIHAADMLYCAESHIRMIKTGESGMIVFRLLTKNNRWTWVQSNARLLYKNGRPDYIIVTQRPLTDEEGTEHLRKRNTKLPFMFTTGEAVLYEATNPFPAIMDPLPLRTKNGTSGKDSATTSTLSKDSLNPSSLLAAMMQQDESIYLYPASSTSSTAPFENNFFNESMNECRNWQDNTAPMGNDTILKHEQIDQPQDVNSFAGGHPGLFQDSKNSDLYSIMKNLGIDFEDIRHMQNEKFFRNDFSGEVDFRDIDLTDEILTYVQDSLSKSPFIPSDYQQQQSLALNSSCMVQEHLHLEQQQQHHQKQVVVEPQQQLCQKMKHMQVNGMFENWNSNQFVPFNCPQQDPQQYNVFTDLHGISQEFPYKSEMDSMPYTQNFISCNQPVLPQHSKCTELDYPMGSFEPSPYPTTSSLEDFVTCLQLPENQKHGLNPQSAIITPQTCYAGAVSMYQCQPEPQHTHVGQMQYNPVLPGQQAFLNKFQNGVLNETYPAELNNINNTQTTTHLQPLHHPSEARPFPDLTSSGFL
# Measurement Description: In Vitro Assay 1: XRE-luciferase reporter assay, antagonism in human cell line (HepG2)
# Condition Label: Assay 1: AhR-Luc Human Antagonism (IC50, nM), values marked *: kynurenine 50 μM, 6 hours

The cases that follow already have their IC50 on record.
Molecule: C[C@@H]1CN(c2cc(-c3ccc(Cl)cc3)nc(-c3cccnc3)n2)[C@@H](C)CN1 (relative stereo)
Reported Result: > 1000 nM
--
Molecule: NC1CCN(c2cc(-c3ccc(Cl)cc3)nc(-c3cccnc3)n2)C1 (centres unmarked)
Reported Result: > 1000 nM
--
Molecule: N#CC1CCN(c2cc(-c3ccc(Cl)cc3)nc(-c3cccnc3)n2)CC1
Reported Result: < 10 nM
--
Molecule: COC(=O)C1CNCCN1c1cc(-c2ccc(Cl)cc2)nc(-c2cccnc2)n1 (centres unmarked)
Reported Result: > 1000 nM

Per the record, `Cn1cc(-c2nc(N[C@@H]3CCC[C@@H]3O)cc(-c3ccc(Cl)cc3)n2)cn1` has IC50 of 100 to 1000 nM

Per the record, `OCCC1CCN(c2cc(-c3ccc(Cl)cc3)nc(-c3cccnc3)n2)CC1` has IC50 of < 10 nM

Per the record, `FC1(F)CCCN(c2cc(-c3ccc(Cl)cc3)nc(-c3cccnc3)n2)C1` has IC50 of 100 to 1000 nM

Per the record, CC1CCCC(C)N1c1cc(-c2ccc(Cl)cc2)nc(-c2cccnc2)n1 (centres unmarked) has IC50 of > 1000 nM
